target_under_test: Calcium/calmodulin-dependent protein kinase kinase 2 (Homo sapiens); further: in the data inactive means no Kd found up to 30 µM
Sequence (Q96RR4 whole entry): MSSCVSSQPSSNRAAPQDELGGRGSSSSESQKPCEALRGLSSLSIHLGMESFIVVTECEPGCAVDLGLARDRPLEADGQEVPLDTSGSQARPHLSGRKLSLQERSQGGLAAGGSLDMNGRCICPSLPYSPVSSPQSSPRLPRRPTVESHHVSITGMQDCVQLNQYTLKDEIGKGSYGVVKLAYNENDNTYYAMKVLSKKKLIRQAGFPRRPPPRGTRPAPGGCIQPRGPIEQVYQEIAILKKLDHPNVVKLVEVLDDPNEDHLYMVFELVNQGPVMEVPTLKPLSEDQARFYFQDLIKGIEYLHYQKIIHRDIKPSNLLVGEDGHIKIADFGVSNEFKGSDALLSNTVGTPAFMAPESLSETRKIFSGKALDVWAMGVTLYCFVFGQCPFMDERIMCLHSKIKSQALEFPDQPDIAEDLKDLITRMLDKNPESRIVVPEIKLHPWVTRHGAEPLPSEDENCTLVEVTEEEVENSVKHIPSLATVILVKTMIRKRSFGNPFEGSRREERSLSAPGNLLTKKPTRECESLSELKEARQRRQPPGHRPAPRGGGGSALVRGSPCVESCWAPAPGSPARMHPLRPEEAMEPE
Activity calls are given as the source filed them.
Classes to choose from: yes (active), no (inactive)

Reference set, count: 9
* NC(=O)Nc1cc(-c2cccc(F)c2)sc1C(=O)N[C@H]1CCCNC1 [AZD-7762] | no
* C=CC(=O)N1CCC[C@H](n2c(=O)n(-c3ccc(Oc4ccccc4)cc3)c3c(N)ncnc32)C1 | no
* O=C(Nc1nc2cccc(-c3ccc(CN4CCS(=O)(=O)CC4)cc3)n2n1)C1CC1 [FILGOTINIB] | yes
* C[C@H]1CNCCCN1S(=O)(=O)c1cccc2cncc(F)c12 | no
* CO[C@H]1C[C@@H]2CC[C@@H](C)[C@@](O)(O2)C(=O)C(=O)N2CCCC[C@H]2C(=O)O[C@H]([C@H](C)C[C@@H]2CC[C@@H](OP(C)(C)=O)[C@H](OC)C2)CC(=O)[C@H](C)/C=C(\C)[C@@H](O)[C@@H](OC)C(=O)[C@H](C)C[C@H](C)/C=C/C=C/C=C/1C [RIDAFOROLIMUS] | no
* Nc1ncnc2c1c(-c1cccc(OCc3ccccc3)c1)cn2[C@H]1C[C@@H](CN2CCC2)C1 [AEW-541] | no
* N#CC1(c2ccc(NC(=O)c3cccnc3NCc3ccncc3)cc2)CCCC1 [RIVOCERANIB] | no
* CC(=O)c1cnc2ccc(-c3cc(Cl)c(O)c(Cl)c3)nc2c1N[C@H]1CC[C@H](CN(C)C)CC1 | yes
* Cc1nc(NC(=O)N2CCC[C@H]2C(N)=O)sc1-c1ccnc(C(C)(C)C(F)(F)F)c1 [ALPELISIB] | no

Next molecule, please.
Please let me know the test result on file for COc1cc([C@@H]2c3cc4c(cc3[C@H](O)[C@H]3COC(=O)[C@@H]23)OCO4)cc(OC)c1OC [AXL-1717] .
no

The reported numbers originate from ChEMBL document CHEMBL3991601.
